assay: Phase 1b study in female adults with cystitis, plasma PK; format: in vivo, human; details: female, human, plasma, oral, 300 mg, plasma, Day 5, PO300; read-out: Tmax, Median
reported metric: Tmax (h)
Field: numeric (h). Do not append units.

# input molecule: CN(C)c1cc(CNCC(C)(C)C)c(O)c2c1C[C@H]1C[C@H]3[C@H](N(C)C)C(O)=C(C(N)=O)C(=O)[C@@]3(O)C(O)=C1C2=O ; wanted: its Tmax
3

###

experiment: Phase 1b study in female adults with cystitis, plasma PK; type: in vivo, human; conditions: female, human, plasma, oral, 450 mg, plasma, Day 1, PO450; read-out: Cmax, Median
reported metric: Cmax
Returns: string containing the numeric result and its unit.

# input molecule: CN(C)c1cc(CNCC(C)(C)C)c(O)c2c1C[C@H]1C[C@H]3[C@H](N(C)C)C(O)=C(C(N)=O)C(=O)[C@@]3(O)C(O)=C1C2=O [Compound 1] ; wanted: its Cmax
947 ng/mL

###

system: E. cloacae CeftazR; experiment: In vitro MIC, 2010 surveillance isolates; assay type: cell-based; conditions: N America; CLSI breakpoints
% R (resistance) reference
Field: numeric (%). Do not append units.

In the examples that follow, each entry is paired with its recorded % R (resistance).
molecule	readout units	observed result
CO/N=C(\C(=O)N[C@@H]1C(=O)N2C(C(=O)[O-])=C(C[N+]3(C)CCCC3)CS[C@H]12)c1csc(N)n1 [Cefepime]	%	6.5
CN(C)c1cc(NC(=O)CNC(C)(C)C)c(O)c2c1C[C@H]1C[C@H]3[C@H](N(C)C)C(O)=C(C(N)=O)C(=O)[C@@]3(O)C(O)=C1C2=O	%	0
NCC[C@H](O)C(=O)N[C@@H]1C[C@H](N)[C@@H](O[C@H]2O[C@H](CN)[C@@H](O)[C@H](O)[C@H]2O)[C@H](O)[C@H]1O[C@H]1O[C@H](CO)[C@@H](O)[C@H](N)[C@H]1O	%	0

Consider now this further molecule.
Which % R (resistance) is reported with E. cloacae CeftazR for this entry: C[C@H]1COc2c(N3CCN(C)CC3)c(F)cc3c(=O)c(C(=O)O)cn1c23 ?
19.5

###

MIC90 reference
test system: E. coli ESBL+; test: In vitro MIC, 2010 surveillance isolates; assay type: cell-based, Escherichia coli; settings: N America; N=134
Field: numeric (µg/mL). Do not append units.

In the examples that follow, each entry is paired with its recorded MIC90.
chem smiles	readout units	MIC90
CN(C)c1cc(CNCC(C)(C)C)c(O)c2c1C[C@H]1C[C@H]3[C@H](N(C)C)C(O)=C(C(N)=O)C(=O)[C@@]3(O)C(O)=C1C2=O	µg/mL	4
C[C@@H](O)[C@H]1C(=O)N2C(C(=O)O)=C(SCCN=CN)C[C@H]12	µg/mL	0.25

# input molecule: CN(C)c1cc(NC(=O)CNC(C)(C)C)c(O)c2c1C[C@H]1C[C@H]3[C@H](N(C)C)C(O)=C(C(N)=O)C(=O)[C@@]3(O)C(O)=C1C2=O ; wanted: its MIC90
0.25

###

experiment: Phase 1b study in female adults with cystitis, plasma PK; format: in vivo, human; conditions: female, human, plasma, oral, 450 mg, plasma, Day 5, PO450; read-out: Cmax, Geo. Mean
reported metric: Cmax (ng/mL)
Field: numeric (ng/mL). Do not append units.

# input compound: CN(C)c1cc(CNCC(C)(C)C)c(O)c2c1C[C@H]1C[C@H]3[C@H](N(C)C)C(O)=C(C(N)=O)C(=O)[C@@]3(O)C(O)=C1C2=O ; wanted: its Cmax
1360

###

system: MR CoNS; assay: In vitro MIC, 2010 surveillance isolates; assay type: cell-based, Coagulase-Negative Staphylococcus; conditions: Europe; Eucast breakpoints
So basically: is % R (resistance) under 9%? Then Yes. Not under? Then No.

These solved cases illustrate the format of a correct answer.
chem smiles	class assignment
C[C@H]1COc2c(N3CCN(C)CC3)c(F)cc3c(=O)c(C(=O)O)cn1c23	No
CN(C)c1cc(NC(=O)CNC(C)(C)C)c(O)c2c1C[C@H]1C[C@H]3[C@H](N(C)C)C(O)=C(C(N)=O)C(=O)[C@@]3(O)C(O)=C1C2=O	Yes
CN[C@H](CC(C)C)C(=O)N[C@H]1C(=O)N[C@@H](CC(N)=O)C(=O)N[C@H]2C(=O)N[C@H]3C(=O)N[C@H](C(=O)N[C@H](C(=O)O)c4cc(O)cc(O)c4-c4cc3ccc4O)[C@H](O)c3ccc(c(Cl)c3)Oc3cc2cc(c3O[C@@H]2O[C@H](CO)[C@@H](O)[C@H](O)[C@H]2O[C@H]2C[C@](C)(N)[C@H](O)[C@H](C)O2)Oc2ccc(cc2Cl)[C@H]1O	Yes

In plain terms, does CO/N=C(\C(=O)N[C@@H]1C(=O)N2C(C(=O)O)=C(CSc3nc(=O)c(=O)[nH]n3C)CS[C@H]12)c1csc(N)n1 come in under 9% for % R (resistance)?
No

###

assay: Phase 1b study in female adults with cystitis, plasma PK; assay type: in vivo, human; details: female, human, plasma, oral, 450 mg, plasma, Day 5, PO450; read-out: Ctrough, Mean
reported metric: concentration at 5 day

# input compound: CN(C)c1cc(CNCC(C)(C)C)c(O)c2c1C[C@H]1C[C@H]3[C@H](N(C)C)C(O)=C(C(N)=O)C(=O)[C@@]3(O)C(O)=C1C2=O ; wanted: its concentration at 5 day
484 ng/mL

###

system: E. coli ESBL−; assay: In vitro MIC, 2010 surveillance isolates; type: cell-based, Escherichia coli; conditions: Asia/Pac; Eucast breakpoints
reported metric: % R (resistance) (%)
Field: numeric (%). Do not append units.

molecule	% R (resistance) [%]
NCC[C@H](O)C(=O)N[C@@H]1C[C@H](N)[C@@H](O[C@H]2O[C@H](CN)[C@@H](O)[C@H](O)[C@H]2O)[C@H](O)[C@H]1O[C@H]1O[C@H](CO)[C@@H](O)[C@H](N)[C@H]1O	0.4
CO/N=C(\C(=O)N[C@@H]1C(=O)N2C(C(=O)O)=C(CSc3nc(=O)c(=O)[nH]n3C)CS[C@H]12)c1csc(N)n1	0
C[C@@H](O)[C@H]1C(=O)N2C(C(=O)O)=C(SCCN=CN)C[C@H]12	0
CO/N=C(\C(=O)N[C@@H]1C(=O)N2C(C(=O)[O-])=C(C[N+]3(C)CCCC3)CS[C@H]12)c1csc(N)n1 [Cefepime]	0
CN(C)c1cc(NC(=O)CNC(C)(C)C)c(O)c2c1C[C@H]1C[C@H]3[C@H](N(C)C)C(O)=C(C(N)=O)C(=O)[C@@]3(O)C(O)=C1C2=O	0

Consider now this further molecule.
Which % R (resistance) is reported with E. coli ESBL− for this entry: C[C@H]1COc2c(N3CCN(C)CC3)c(F)cc3c(=O)c(C(=O)O)cn1c23 ?
17

###

assay: Phase 1b study in female adults with cystitis, urine PK; type: in vivo, human; details: female, human, urine and plasma, oral, 450 mg, Day 5, PO450; read-out: Renal CL, Median (converted)
reported metric: clearance (mL/min)
Field: numeric (mL/min). Do not append units.

# input compound: CN(C)c1cc(CNCC(C)(C)C)c(O)c2c1C[C@H]1C[C@H]3[C@H](N(C)C)C(O)=C(C(N)=O)C(=O)[C@@]3(O)C(O)=C1C2=O ; wanted: its clearance
27.8

###

tested on: E. faecalis VNS; experiment: In vitro MIC, 2010 surveillance isolates; assay type: cell-based; conditions: Asia/Pac; N=1
reported metric: range of MICs (N <10, shown instead of MIC90)
Enter a number only.

chem smiles	target of assay	observed result
C[C@H]1c2cccc(O)c2C(=O)C2=C(O)[C@]3(O)C(=O)C(C(N)=O)=C(O)[C@@H](N(C)C)[C@@H]3[C@@H](O)[C@@H]21	E. faecalis VNS	8
CN(C)c1cc(NC(=O)CNC(C)(C)C)c(O)c2c1C[C@H]1C[C@H]3[C@H](N(C)C)C(O)=C(C(N)=O)C(=O)[C@@]3(O)C(O)=C1C2=O	E. faecalis VNS	0.25

Consider now this further compound.
# input compound: CN(C)c1cc(CNCC(C)(C)C)c(O)c2c1C[C@H]1C[C@H]3[C@H](N(C)C)C(O)=C(C(N)=O)C(=O)[C@@]3(O)C(O)=C1C2=O ; wanted: its range of MICs (N <10, shown instead of MIC90)
0.5

###

tested on: MR CoNS; assay: In vitro MIC, 2010 surveillance isolates; format: cell-based, Coagulase-Negative Staphylococcus; details: N America; N=461
reported metric: MIC90 (µg/mL)
Field: numeric (µg/mL). Do not append units.

# input molecule: CN[C@H](CC(C)C)C(=O)N[C@H]1C(=O)N[C@@H](CC(N)=O)C(=O)N[C@H]2C(=O)N[C@H]3C(=O)N[C@H](C(=O)N[C@H](C(=O)O)c4cc(O)cc(O)c4-c4cc3ccc4O)[C@H](O)c3ccc(c(Cl)c3)Oc3cc2cc(c3O[C@@H]2O[C@H](CO)[C@@H](O)[C@H](O)[C@H]2O[C@H]2C[C@](C)(N)[C@H](O)[C@H](C)O2)Oc2ccc(cc2Cl)[C@H]1O [Vancomycin] ; wanted: its MIC90
2

From: patent US10238670B2
